Assay: Kidney drug distribution and kidney-plasma ratios (HPLC)
Format: in vivo, mice
Details: female, DBA-2, mouse, kidney, ip, 50 mg kg-1, 50 mg kg-1 i.p.; read-out: kidney-plasma ratio, steady-state
Readout label: Kp

Lab note: C#CCN(Cc1cc2c(=O)[nH]c(C)nc2cc1C)c1ccc(C(=O)N[C@@H](CCc2nnn[nH]2)C(=O)O)c(F)c1 gave Kp of 1 to 3

* * *

Test: Plasma pharmacokinetics of ZD9331 (HPLC, non-compartmental)
Assay type: in vivo, mice
Details: female, DBA-2, mouse, plasma, iv; 50 mg kg-1 i.v.; read-out: plasma drug concentration at 4 h
Experimental: British Journal of Cancer (1998) 78(11), 1457-1463 ? […] In contrast to Tomudex (ZD1694), ZD9331 may therefore be active against tumours with low FPGS activity. […] Renal function was assessed by measuring [14C]inulin clearance, and drug concentrations were assayed by reverse-phase high-performance liquid chromatography (HPLC). […] These adverse effects can be readily overcome by i.p. administration, indicating the likely need for short infusions in clinical settings. […]
Readout label: concentration at 4 h (nM)
Just the number please, in nM, no unit attached.

Lab note: C#CCN(Cc1cc2c(=O)[nH]c(C)nc2cc1C)c1ccc(C(=O)N[C@@H](CCc2nnn[nH]2)C(=O)O)c(F)c1 gave concentration at 4 h of 1100

* * *

Assay: Kidney drug distribution and kidney-plasma ratios (HPLC)
Assay type: in vivo, mice
Settings: female, DBA-2, mouse, kidney, iv, 50 mg kg-1, 50 mg kg-1 i.v.; read-out: kidney-plasma ratio at 30 min
Readout label: Kp at 30 min
// no unit string in output, number only

Lab note: C#CCN(Cc1cc2c(=O)[nH]c(C)nc2cc1C)c1ccc(C(=O)N[C@@H](CCc2nnn[nH]2)C(=O)O)c(F)c1 gave Kp at 30 min of 10

* * *

Assay: Kidney drug distribution and kidney-plasma ratios (HPLC)
Assay type: in vivo, mice
Settings: female, DBA-2, mouse, kidney, iv, 200 mg kg-1, 200 mg kg-1 i.v.; read-out: kidney concentration relative to plasma, plateau
Readout label: Kp

Lab note: C#CCN(Cc1cc2c(=O)[nH]c(C)nc2cc1C)c1ccc(C(=O)N[C@@H](CCc2nnn[nH]2)C(=O)O)c(F)c1 gave Kp of 400 to 600

* * *

Experiment: Plasma pharmacokinetics of ZD9331 (HPLC, non-compartmental)
Assay type: in vivo, mice
Details: female, DBA-2, mouse, plasma, ip, 50 mg/kg, plasma, DBA-2 mice, 50 mg kg-1 i.p.; read-out: t1/2
Readout label: half-life (h)
Just the number please, in h, no unit attached.

Lab note: C#CCN(Cc1cc2c(=O)[nH]c(C)nc2cc1C)c1ccc(C(=O)N[C@@H](CCc2nnn[nH]2)C(=O)O)c(F)c1 gave half-life of 1.56

* * *

Assay: Kidney drug distribution and kidney-plasma ratios (HPLC)
Type: in vivo, mice
Settings: female, mouse, iv; kidney, DBA-2 mice, 50 mg kg-1 i.v.
Readout label: Tmax (min)
Just the number please, in min, no unit attached.

Lab note: C#CCN(Cc1cc2c(=O)[nH]c(C)nc2cc1C)c1ccc(C(=O)N[C@@H](CCc2nnn[nH]2)C(=O)O)c(F)c1 [ZD9331] gave Tmax of 10

* * *

Assay: Kidney drug distribution and kidney-plasma ratios (HPLC)
Type: in vivo, mice
Details: female, mouse, ip; kidney, DBA-2 mice, 200 mg kg-1 i.p.; read-out: AUC0-8h
Readout label: AUC(0-t)
For clarity, give the value followed by its unit.

Lab note: C#CCN(Cc1cc2c(=O)[nH]c(C)nc2cc1C)c1ccc(C(=O)N[C@@H](CCc2nnn[nH]2)C(=O)O)c(F)c1 [ZD9331] gave AUC(0-t) of 179 µM·h

* * *

Assay: Kidney drug distribution and kidney-plasma ratios (HPLC)
Type: in vivo, mice
Conditions: female, DBA-2, mouse, kidney, iv, 200 mg kg-1, 200 mg kg-1 i.v.; read-out: kidney-plasma ratio, initial (measured at 5 min)
Readout label: Kp at 5 min
// no unit string in output, number only

Lab note: C#CCN(Cc1cc2c(=O)[nH]c(C)nc2cc1C)c1ccc(C(=O)N[C@@H](CCc2nnn[nH]2)C(=O)O)c(F)c1 [ZD9331] gave Kp at 5 min of 1

* * *

Assay: Kidney drug distribution and kidney-plasma ratios (HPLC)
Format: in vivo, mice
Settings: female, mouse, ip; kidney, DBA-2 mice, 50 mg kg-1 i.p.; read-out: AUC0-8h
Readout label: AUC(0-t) (µM·h)
Just the number please, in µM·h, no unit attached.

Lab note: C#CCN(Cc1cc2c(=O)[nH]c(C)nc2cc1C)c1ccc(C(=O)N[C@@H](CCc2nnn[nH]2)C(=O)O)c(F)c1 gave AUC(0-t) of 47.5

* * *

Test: Kidney drug distribution and kidney-plasma ratios (HPLC)
Assay type: in vivo, mice
Conditions: female, DBA-2, mouse, kidney/plasma, ip, 200 mg kg-1, 200 mg kg-1 i.p.; read-out: kidney-plasma ratio, increased steadily to
Readout label: Kp

Lab note: C#CCN(Cc1cc2c(=O)[nH]c(C)nc2cc1C)c1ccc(C(=O)N[C@@H](CCc2nnn[nH]2)C(=O)O)c(F)c1 gave Kp of 10 to 20

* * *

Assay: Plasma pharmacokinetics of ZD9331 (HPLC, non-compartmental)
Format: in vivo, mice
Details: female, DBA-2, mouse, plasma, iv; 100 mg kg-1 i.v.; read-out: plasma drug concentration at 5 min
Readout label: concentration at 5 min (µM)
Just the number please, in µM, no unit attached.

Lab note: C#CCN(Cc1cc2c(=O)[nH]c(C)nc2cc1C)c1ccc(C(=O)N[C@@H](CCc2nnn[nH]2)C(=O)O)c(F)c1 gave concentration at 5 min of 771

* * *

Assay: Kidney drug distribution and kidney-plasma ratios (HPLC)
Type: in vivo, mice
Settings: female, DBA-2, mouse, kidney, ip, 50 mg kg-1, 50 mg kg-1 i.p.; read-out: kidney-plasma ratio after 1 h
Readout label: Kp at 1 h
// no unit string in output, number only

Lab note: C#CCN(Cc1cc2c(=O)[nH]c(C)nc2cc1C)c1ccc(C(=O)N[C@@H](CCc2nnn[nH]2)C(=O)O)c(F)c1 gave Kp at 1 h of 1

* * *

Assay: Plasma pharmacokinetics of ZD9331 (HPLC, non-compartmental)
Type: in vivo, mice
Conditions: female, mouse, ip; plasma, DBA-2 mice, 50 mg kg-1 i.p.
Readout label: Tmax (min)
Just the number please, in min, no unit attached.

Lab note: C#CCN(Cc1cc2c(=O)[nH]c(C)nc2cc1C)c1ccc(C(=O)N[C@@H](CCc2nnn[nH]2)C(=O)O)c(F)c1 gave Tmax of 10

* * *

Assay: Plasma pharmacokinetics of ZD9331 (HPLC, non-compartmental)
Assay type: in vivo, mice
Details: female, mouse, iv; plasma, DBA-2 mice, 200 mg kg-1 i.v. bolus
Readout label: Tmax (min)
Just the number please, in min, no unit attached.

Lab note: C#CCN(Cc1cc2c(=O)[nH]c(C)nc2cc1C)c1ccc(C(=O)N[C@@H](CCc2nnn[nH]2)C(=O)O)c(F)c1 [ZD9331] gave Tmax of 1

* * *

Experiment: Kidney drug distribution and kidney-plasma ratios (HPLC)
Assay type: in vivo, mice
Conditions: female, mouse, iv; kidney, DBA-2 mice, 200 mg kg-1 i.v.
Procedure: British Journal of Cancer (1998) 78(11), 1457-1463 ? […] In contrast to Tomudex (ZD1694), ZD9331 may therefore be active against tumours with low FPGS activity. […] Renal function was assessed by measuring [14C]inulin clearance, and drug concentrations were assayed by reverse-phase high-performance liquid chromatography (HPLC). […] These adverse effects can be readily overcome by i.p. administration, indicating the likely need for short infusions in clinical settings. […]
Readout label: Tmax

Lab note: C#CCN(Cc1cc2c(=O)[nH]c(C)nc2cc1C)c1ccc(C(=O)N[C@@H](CCc2nnn[nH]2)C(=O)O)c(F)c1 [ZD9331] gave Tmax of 30 min

* * *

Assay: Kidney drug distribution and kidney-plasma ratios (HPLC)
Format: in vivo, mice
Settings: female, DBA-2, mouse, kidney/plasma, ip, 200 mg kg-1, 200 mg kg-1 i.p.; read-out: kidney-plasma ratio, initial
Readout label: Kp

Lab note: C#CCN(Cc1cc2c(=O)[nH]c(C)nc2cc1C)c1ccc(C(=O)N[C@@H](CCc2nnn[nH]2)C(=O)O)c(F)c1 gave Kp of 0.23

* * *

Assay: Aqueous solubility
Format: physicochemical
Conditions: pH 7.4, aqueous buffer
Readout label: solubility (mM)
Just the number please, in mM, no unit attached.

Lab note: C#CCN(Cc1cc2c(=O)[nH]c(C)nc2cc1C)c1ccc(C(=O)N[C@@H](CCc2nnn[nH]2)C(=O)O)c(F)c1 [ZD9331] gave solubility of 8

* * *

Experiment: Kidney drug distribution and kidney-plasma ratios (HPLC)
Format: in vivo, mice
Conditions: female, DBA-2, mouse, kidney, iv, 50 mg kg-1, 50 mg kg-1 i.v.; read-out: kidney-plasma ratio, initial
Readout label: Kp

Lab note: C#CCN(Cc1cc2c(=O)[nH]c(C)nc2cc1C)c1ccc(C(=O)N[C@@H](CCc2nnn[nH]2)C(=O)O)c(F)c1 gave Kp of 0.35
